- PROCEDURE SUMMARY: Terminal half life in Beagle dog at 2 mg/kg, iv
- Format: ADME, organism-based, Canis lupus familiaris
- Parameters: dose 2 mg/kg, route intravenous
- CONDITION SET: in vivo, read-out: beta t1/2 (converted)
REPORTED ENDPOINT: half-life (h)
Express it in h; write the number only.

half-life reading for `COc1cc(/C=C2\SC(=O)NC2=O)ccc1Oc1ccc(C#N)cc1C(F)(F)F` : 5

----------
- PROCEDURE SUMMARY: Half life in ZDF fa/fa rat at 0.08 mg/kg, po qd for 22 days
- Format: ADME, organism-based
- Design: dose 0.08 mg/kg, route oral
- CONDITION SET: in vivo
REPORTED ENDPOINT: half-life (h)
Express it in h; write the number only.

half-life reading for `COc1cc(/C=C2\SC(=O)NC2=O)ccc1Oc1ccc(C#N)cc1C(F)(F)F` : 9.8
